Listing of IC50 toward PIK3CD (Human) (UniProt O00329), each taken from a published source.

Some solved entries appear below for comparison.
CCN1CCC(COc2ccc(Nc3cc(-c4cc(F)c5c(c4)N(C(C)C)CCO5)c(F)cn3)nc2)CC1 : > 30200 nM
Cc1cccc2cc(Cn3nc(-c4cnn(CCO)c4)c4c(N)ncnc43)n(-c3ccccc3F)c(=O)c12 : < 100 nM

Prompt line: // lookup IC50 | system=PIK3CD (Human) (UniProt O00329) | key= O=C(CNC1CCCC1)N[C@H]1CC[C@H](Oc2cc(-n3c(C(F)F)nc4ccccc43)nc(N3CCOCC3)n2)CC1
Response line: 4.7 nM

Prompt line: // lookup IC50 | system=PIK3CD (Human) (UniProt O00329) | key= CCNC(=O)C1CCN(Cc2csc3c(-c4cnc(OC)c(NS(C)(=O)=O)c4)nc(N4CCOCC4)nc23)CC1
Response line: 7.3 nM
